Assayed System: T1, human GITR with mFc tag (huGITR-mFc) (human)
T1 chain: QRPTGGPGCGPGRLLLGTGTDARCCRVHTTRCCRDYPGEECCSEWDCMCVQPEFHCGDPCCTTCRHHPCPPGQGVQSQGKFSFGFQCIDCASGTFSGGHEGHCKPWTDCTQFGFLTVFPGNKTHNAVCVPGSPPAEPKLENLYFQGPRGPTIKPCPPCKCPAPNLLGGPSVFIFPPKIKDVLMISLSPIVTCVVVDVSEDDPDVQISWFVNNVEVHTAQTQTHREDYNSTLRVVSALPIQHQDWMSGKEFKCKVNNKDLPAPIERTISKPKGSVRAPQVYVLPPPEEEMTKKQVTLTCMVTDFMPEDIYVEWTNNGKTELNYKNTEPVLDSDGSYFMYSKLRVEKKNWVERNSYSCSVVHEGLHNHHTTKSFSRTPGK
Experiment Summary: ELISA, huGITR-mFc coated at 1 ug/ml
Readout Name: EC50 (nM)
// note: answer is a bare numeric in nM

Please fill in: EC50 reported for mouse monoclonal antibody 18F10 (antibody, V domains shown, Mouse antibody from a hybridoma) VH: QVQLQQSGAELVRPGVSVKISCKCSGYTFTGYDLHWVKQSHAKSLDWIGVISTYYGDANYNQKFKGKATMTVDKSSSTAYMELARLTSEDSAIYYCTRLAESYFFDYWGQGTTLTVSS VL: QILLTQSPAIMSASPGEKVTMTCRASSSVSYIHWYQQKPGSSPKPWIYDTSDLASGFPARFSGTGSGTSYSLIISSMEAEDAATYYCHQRSSYPFTFGSGTKLEIK = 0.103
